# System: HL-60(TB) leukemia
# methodNotes: NCI-60 one-dose screen, 48 h (100 = growth as untreated, 0 = no growth, -100 = all killed)
# experimentalConditions: 10 µM unless noted
The panel holds about 83,000 compounds, 20% with a hit somewhere; the sample as a whole holds those more often.
Label scheme, based on growth: Low (below 20%), Medium (20% to below 90%), High (90% or more)

### Prompt # classify by growth band: `O=C(Nc1cccc(-n2cc(-c3ccncc3)c(-c3ccc(Cl)c(O)c3)n2)c1)Nc1ccc(Cl)c(Cl)c1`
### Response Low

### Prompt Now consider `COc1cccc(CNc2ccc3ncnc(Nc4ccc(F)c(Cl)c4)c3c2)c1` .
### Response High

### Prompt Thanks! And `COc1cccc(C(=O)NNc2nc(N3CCOCC3)nc(N3CCN(C(c4ccccc4)c4ccccc4)CC3)n2)c1` ?
### Response Medium

### Prompt Next record, please: `Cc1cc(O)ccc1C1=NN(c2ccc(S(N)(=O)=O)cc2)C(=O)CC1`
### Response Low

### Prompt Similarly, `CCOc1ccc2[nH]c(=S)sc2c1` ?
### Response Medium

### Prompt How about CC(=O)OCC1OC(OCC2OC(OC(C)=O)C(OC(C)=O)C(OC(C)=O)C2OC(C)=O)C(OC(C)=O)C(OC(C)=O)C1OC(C)=O (centres undefined) ?
### Response High

### Prompt How about `Cc1ccc(S(N)(=O)=O)cc1Cl` ?
### Response Medium

### Prompt Also check Cc1cc(C)c2c(c1)N(C)c1ncnc(-n3cnc4cc(C)ccc43)c1CC2C (centres undefined)
### Response Low

### Prompt Record: `COc1ccc2occ(C3=C(c4c[nH]c5ccccc45)C(=O)N(O)C3=O)c2c1`
### Response High

### Prompt Now give it for `CCn1c(Cc2ccccc2Nc2c(Cl)cccc2Cl)nnc1SCC(=O)Nc1ccccc1C(F)(F)F` too.
### Response Medium

### Prompt Record: `CN1CCN(C(=O)OCc2ccc3c(Cl)cc(Cl)c(O)c3n2)CC1`
### Response Low

### Prompt Proceed to `O=c1nc2c(-c3nc4ccccc4s3)n[nH]n2c2sc3c(c12)CCCC3`
### Response High

### Prompt What about `CN(C)Cc1ccc(NC(=O)c2cncc(C#Cc3cnc(N)c4ncccc34)c2)cc1F` ?
### Response Medium

### Prompt Please give the result for `CCCCN(CCCC)CCc1c(C)cc(C)c(CCN(CCCC)CCCC)c1O` too.
### Response Low

### Prompt Quick one: `Oc1ccc(-c2cnc(-c3ccccc3)[nH]2)c(O)c1`
### Response High

### Prompt Okay, and `COc1cccc2c1nc1cccc(OC)c1[n+]2[O-]` ?
### Response Low

### Prompt Can you check `COc1cc2cc(Oc3ccc(NC(=O)Nc4ccc(Cl)c(Cl)c4)cc3)c(C)nc2cc1OCCN1CCOCC1` next?
### Response High

### Prompt Query `Cc1nn(-c2ccccc2)c2nc3nc4c(c(N)c3c(-c3ccc(Cl)cc3)c12)CCCC4` next
### Response High

### Prompt Also need `COc1cc2c(cc1OCCCOc1ccc(-c3cc4ccccc4c4ccccc34)cc1)N=C[C@@H]1CCCN1C2=O` , thanks.
### Response Low

### Prompt Let us now turn to `CC(C)=NNc1ccc([N+](=O)[O-])cc1[N+](=O)[O-]`
### Response Medium

### Prompt // repeat for `CCCCCCCCCCCC(=O)NCCCN(C)C` and report
### Response Medium

### Prompt Item: `CCc1ccccc1-n1c(-c2ccc(Cl)cc2)cc(-c2ccc(OC)cc2)c(C#N)c1=O`
### Response Medium

### Prompt Try the compound COc1cc(OC)cc(C2=C3CC[C@@H]4[C@H](CC[C@]5(C)C(=O)CC[C@@H]45)C3=CC3C(O)c4cccnc4N4C(=O)COC234)c1 (some centres undefined)
### Response High

### Prompt Could you do the same for CCOC(=O)c1cn2c3c(cc(F)cc3c1=O)C(CC)c1ccccc1C2 (centres undefined) , please?
### Response High

### Prompt Then what about the compound `CC1=C(Nc2ccc(N3CCN(C)CC3)cc2)C(=O)c2cncnc2C1=O` ?
### Response Low

### Prompt Now consider `CN(C)CCCOc1cccc(NC2=C(Cl)C(=O)C(Nc3cccc(OCCCN(C)C)c3)=C(Cl)C2=O)c1` .
### Response Low

### Prompt Quick one: `O=C1c2ccccc2C(=O)c2c1oc1c2c(=O)[nH]c2ccc(Cl)cc21`
### Response High

### Prompt And what about the compound `COc1ccc(Cc2cc(-c3ccccc3)nn(Cc3ccccc3)c2=O)cc1OC` ?
### Response Medium

### Prompt Now consider `CC(=O)N(C)c1ccc(Nc2cc(C)[nH]c3ccc4ncnc4c23)cc1` .
### Response Medium

### Prompt What about this compound? `COc1ccc(Nc2cc(Cl)ccc2C(=O)O)cn1`
### Response High

### Prompt Try this compound next: `N#Cc1cnn2c(-c3ccc(Cl)cc3)nc(NC3CC3)nc12`
### Response High

### Prompt // repeat for `CCN(CC)CCOc1ccc(-c2nc3cc(Cl)ccc3s2)cc1` and report
### Response Low

### Prompt Proceed to `COc1cc2c(cc1OCCCCC(=O)Nc1ccc(-c3nc4ccccc4s3)cc1)N=C[C@@H]1CCCN1C2=O`
### Response Low

### Prompt Then this compound: `COc1cc(-c2nc(-c3nnc(-c4ccc(F)c(Cl)c4)o3)c3ccccn23)cc(OC)c1OC`
### Response Medium

### Prompt What about this compound? `COc1cccc(-c2nn(-c3ccccc3)cc2-c2ccnc(NCCCNC(=O)c3ccc(F)cc3)c2)c1`
### Response Low

### Prompt Then what about the compound `CCC1=C[C@@H]2CN(C1)Cc1c([nH]c3ccccc13)[C@@](C(=O)OC)(c1cc3c(cc1OC)N(C)[C@H]1[C@@](O)(C(=O)OC)[C@H](OC(C)=O)[C@]4(CC)[C@@H]5C[C@@H]5CN5CC[C@]31[C@@H]54)C2` ?
### Response Low

### Prompt Please do the same for `Nc1ccc(N2CCOCC2)cc1` as well.
### Response Medium
